assay: soluble on expression in E. coli; label from the status in PepcDB or PDB records
Metric name: soluble on expression in E. coli

MGYASKLALKICLASLCLFSALGAEHLEQKRNYIYKGEEAYNNKEYERAASFYKSAIKNGEPLAYVLLGIMYENGRGVPKDEKKAAEYFQKAVDNDIPRGYNNLGVMYKEGRGVPKDEKKAVEYFRIATEKGYTNAYINLGIMYMEGRGVPSNYVKATECFRKAMHKGNVEAYILLGDIYYSGNDQLGIEPDKDKAIVYYKMAADMSSSRAYEGLAESYQYGLGVEKDKKKAEEYMQKACDFDIDKNCKKKNTSSRLEHHHHHH
soluble
MKPRPQSDAVDNEGPTPLSKGRRHLAMRLDDAWLGFQTRLAIRRGRVETVIPYTGYGSTSWVRVLARIVRSDPRDAAGHTNPLQESMRGWRNFTSAPVAHASVQVTIDGTVHDVVADRGGVVDARIPVALDAGWHTITLRSGESETVEAPVEIVADDAVFGVVSDIDDTVMVTALPRPFLAAWNTFVLNEHARTPTPGMAVLYERIARTAPSAPVLYLSTGAWNVAPTLSRFLSRNLYPAGPKLLTDWGPTPDRWFRSGQEHKRTSLERLAEEFPNIKWLLVGDDGQHDEAIYSEFAQRHPASVRAIAIRQLSAGEAVLAGGRSKSGGQPTPGVPWIYAPDGAGMSAQLEELGIIRNEVRSADDPEEGEVTTGSDLEHHHHHH
soluble
MAPKDNTWYTGAKLGFSQYHDTGFINNNGPTHENQLGAGAFGGYQVNPYVGFEMGYDFLGRMPYKGSVENGAYKAQGVQLTAKLGYPITDDLDIYTRLGGMVFRADTKSNVYGKNHDTGVSPVFAGGVEYAITPEIATRLEYQFTNNIGDAHTIGTRPDNGMLSLGVSYRFGQGEAA
soluble
